- procedureDetails: Bioavailability in oral administration in rats
- Type: in vivo, Wistar-strain male rats
- reportedConditions: rat, plasma; rats, oral, after 30 min.; read-out: Concentration in plasma
parameter: concentration at 0.5 h

smilesrepresentation=CCn1cc(C(=O)O)c(=O)c2cc(F)c(-n3cnc(C)c3)c(F)c21 parameter="concentration at 0.5 h" valuemeasured="58700 ng/mL"
smilesrepresentation=CCn1cc(C(=O)O)c(=O)c2cc(F)c(N3CCNCC3)cc21 parameter="concentration at 0.5 h" valuemeasured="1810 ng/mL"
smilesrepresentation=CCn1cc(C(=O)O)c(=O)c2cc(F)c(N3CCN(C)CC3)c(F)c21 parameter="concentration at 0.5 h" valuemeasured="22600 ng/mL"
smilesrepresentation=CCn1cc(C(=O)O)c(=O)c2cc(F)c(-n3ccnc3)c(F)c21 parameter="concentration at 0.5 h" valuemeasured="54900 ng/mL"

----------
- procedureDetails: Bioavailability in oral administration in rats
- Assay type: in vivo, Wistar-strain male rats
- reportedConditions: rat, in vivo, po
parameter: concentration at 1 h (ng/mL)

smilesrepresentation=CCn1cc(C(=O)O)c(=O)c2cc(F)c(N3CCNCC3)c(F)c21 valuemeasured=12300

----------
Overview of reported AUC at 4 h across a group of compounds:
- procedureDetails: Bioavailability in oral administration in rats
- Type: in vivo, Wistar-strain male rats
- Set-up: concentration or dose not given beside the values
- reportedConditions: rat; rats, oral, plasma, 1-4 hrs.; read-out: AUC
parameter: AUC at 4 h (µg·h/mL)

smilesrepresentation=CCn1cc(C(=O)O)c(=O)c2cc(F)c(N3CCN(C)CC3)c(F)c21 unitinfo=µg·h/mL valuemeasured=60.5
smilesrepresentation=CCn1cc(C(=O)O)c(=O)c2cc(F)c(N3CCNCC3)cc21 unitinfo=µg·h/mL valuemeasured=2.99
smilesrepresentation=CCn1cc(C(=O)O)c(=O)c2cc(F)c(-n3ccnc3)c(F)c21 unitinfo=µg·h/mL valuemeasured=184
smilesrepresentation=CCn1cc(C(=O)O)c(=O)c2cc(F)c(-n3cnc(C)c3)c(F)c21 unitinfo=µg·h/mL valuemeasured=188

----------
- procedureDetails: Bioavailability in oral administration in rats
- Assay type: in vivo, Wistar-strain male rats
- reportedConditions: rat, in vivo, po
parameter: concentration at 4 h (ng/mL)

smilesrepresentation=CCn1cc(C(=O)O)c(=O)c2cc(F)c(N3CCNCC3)c(F)c21 parameter="concentration at 4 h" valuemeasured=2000

----------
- procedureDetails: Bioavailability in oral administration in rats
- Type: in vivo, Wistar-strain male rats
- reportedConditions: rat, in vivo, po
- Method: Each of the test compounds was suspended in a 0.5% sodium carboxymethylcellulose to prepare a suspension having a concentration of 5 mg/ml of the test compound. Wistar-strain male rats (weighing 160 g ±20 g, three per group) were used. The suspension was orally administered to rats fasted 16 hours. […] In the same manner as described in Experiment 2, the concentration (μg/ml) of test compound in plasma and also AUC (μg.hr/ml) were measured.
parameter: AUC at 4 h (ng·h/mL)

smilesrepresentation=CCn1cc(C(=O)O)c(=O)c2cc(F)c(N3CCNCC3)c(F)c21 parameter="AUC at 4 h" valuemeasured=26000

----------
- procedureDetails: Bioavailability in oral administration in rats
- Assay type: in vivo, Wistar-strain male rats
- reportedConditions: rat, in vivo, po
parameter: concentration at 0.5 h (ng/mL)

compound="CCn1cc(C(=O)O)c(=O)c2cc(F)c(N3CCNCC3)c(F)c21 [C]" parameter="concentration at 0.5 h" unitinfo=ng/mL valuemeasured=11700

----------
- procedureDetails: Bioavailability in oral administration in mice
- Type: in vivo, ddY-strain male mice
- reportedConditions: mouse, in vivo, po, 50 mg/kg
parameter: concentration at 4 h (ng/mL)

compound="CCn1cc(C(=O)O)c(=O)c2cc(F)c(N3CCNCC3)c(F)c21 [C]" unitinfo=ng/mL valuemeasured=1530

----------
- procedureDetails: Bioavailability in oral administration in mice
- Format: in vivo, ddY-strain male mice
- reportedConditions: mouse, serum; mice, oral 50 mg/kg, after 30 min.; read-out: Concentration in serum
Consider the cut-off 10000 ng/mL. If the recorded concentration at 0.5 h is strictly smaller, the label is label 1; if not, the label is label 0.

compound="CC1COc2c(-n3ccnc3)c(F)cc3c(=O)c(C(=O)O)cn1c23 (centres unmarked) [F]" labelvalue="label 1"
compound="CCn1cc(C(=O)O)c(=O)c2cc(F)c(N3CCNCC3)cc21 [Compound A]" labelvalue="label 1"
compound="CCn1cc(C(=O)O)c(=O)c2cc(F)c(-n3ccnc3)c(F)c21 [I-a]" labelvalue="label 0"
compound="CCn1cc(C(=O)O)c(=O)c2cc(F)c(-n3cnc(C)c3)c(F)c21 [I-b]" labelvalue="label 0"
compound="CCn1cc(C(=O)O)c(=O)c2cc(F)c(N3CCN(C)CC3)c(F)c21 [D]" labelvalue="label 0"

----------
- procedureDetails: Bioavailability in oral administration in rats
- Format: in vivo, Wistar-strain male rats
- reportedConditions: rat, plasma; rats, oral, after 60 min.; read-out: Concentration in plasma
parameter: concentration at 1 h

smilesrepresentation=CCn1cc(C(=O)O)c(=O)c2cc(F)c(N3CCN(C)CC3)c(F)c21 valuemeasured="24000 ng/mL"
smilesrepresentation=CCn1cc(C(=O)O)c(=O)c2cc(F)c(-n3ccnc3)c(F)c21 valuemeasured="70800 ng/mL"
smilesrepresentation=CCn1cc(C(=O)O)c(=O)c2cc(F)c(N3CCNCC3)cc21 valuemeasured="1190 ng/mL"
smilesrepresentation=CCn1cc(C(=O)O)c(=O)c2cc(F)c(-n3cnc(C)c3)c(F)c21 valuemeasured="62900 ng/mL"

----------
- procedureDetails: in vivo
- reportedConditions: mouse, in vivo, po
Overview of reported LD50 at 168 h across a group of compounds:
parameter: LD50 at 168 h (mg/kg)

smilesrepresentation=CCn1cc(C(=O)O)c(=O)c2cc(F)c(N3CCN(C)CC3)c(F)c21 comparator== valuemeasured=536
smilesrepresentation=CCn1cc(C(=O)O)c(=O)c2cc(F)c(-n3cnc(C)c3)c(F)c21 comparator=> valuemeasured=4000

----------
Overview of reported MIC across a group of compounds:
- Tested on: Salmonella paratyphi 1015
- procedureDetails: MIC
- Assay type: cell-based
- reportedConditions: Salmonella enterica
parameter: MIC

smilesrepresentation=CCn1cc(C(=O)O)c(=O)c2cc(F)c(N3CCNCC3)cc21 valuemeasured="0.1 µg/mL"
smilesrepresentation=CCn1cc(C(=O)O)c(=O)c2cc(F)c(-n3cnc(C)c3)c(F)c21 valuemeasured="0.1 µg/mL"
smilesrepresentation=CCn1cc(C(=O)O)c(=O)c2cc(F)c(N3CCN(C)CC3)c(F)c21 valuemeasured="0.1 µg/mL"
smilesrepresentation=CCn1cc(C(=O)O)c(=O)c2cnc(-n3ccnc3)cc21 valuemeasured="12.5 µg/mL"
smilesrepresentation=CCn1cc(C(=O)O)c(=O)c2cc(F)c(N3CCNCC3)c(F)c21 valuemeasured="0.1 µg/mL"

----------
Overview of reported concentration at 4 h across a group of compounds:
- procedureDetails: Bioavailability in oral administration in rats
- Format: in vivo, Wistar-strain male rats
- reportedConditions: rat, plasma; rats, oral, after 240 min.; read-out: Concentration in plasma
parameter: concentration at 4 h

smilesrepresentation=CCn1cc(C(=O)O)c(=O)c2cc(F)c(N3CCNCC3)cc21 valuemeasured="250 ng/mL"
smilesrepresentation=CCn1cc(C(=O)O)c(=O)c2cc(F)c(-n3ccnc3)c(F)c21 valuemeasured="31300 ng/mL"
smilesrepresentation=CCn1cc(C(=O)O)c(=O)c2cc(F)c(-n3cnc(C)c3)c(F)c21 valuemeasured="33500 ng/mL"
smilesrepresentation=CCn1cc(C(=O)O)c(=O)c2cc(F)c(N3CCN(C)CC3)c(F)c21 valuemeasured="9300 ng/mL"

----------
- procedureDetails: Bioavailability in oral administration in mice
- Type: in vivo, ddY-strain male mice
- reportedConditions: mouse, in vivo, po, 50 mg/kg
parameter: AUC at 4 h (ng·h/mL)

smilesrepresentation=CCn1cc(C(=O)O)c(=O)c2cc(F)c(N3CCNCC3)c(F)c21 valuemeasured=12400

----------
Overview of reported log10 concentration at 4 h across a group of compounds:
- procedureDetails: Bioavailability in oral administration in mice
- Format: in vivo, ddY-strain male mice
- reportedConditions: mouse, serum; mice, oral 50 mg/kg, after 240 min.; read-out: Concentration in serum
parameter: log10 concentration at 4 h (log10 of the value in ng/mL)

compound="CC1COc2c(-n3ccnc3)c(F)cc3c(=O)c(C(=O)O)cn1c23 (centres unmarked)" valuemeasured=2.78
compound=CCn1cc(C(=O)O)c(=O)c2cc(F)c(-n3ccnc3)c(F)c21 valuemeasured=3.23
compound=CCn1cc(C(=O)O)c(=O)c2cc(F)c(N3CCN(C)CC3)c(F)c21 valuemeasured=3.53
compound=CCn1cc(C(=O)O)c(=O)c2cc(F)c(N3CCNCC3)cc21 valuemeasured=2.56
compound=CCn1cc(C(=O)O)c(=O)c2cc(F)c(-n3cnc(C)c3)c(F)c21 valuemeasured=3.80

The reported measurements were obtained from patent US4530930A.
